Tested on: E57 (patient-derived glioblastoma stem cells of mesenchymal subtype)
Experiment: surviving fraction (nuclei count normalised to DMSO); higher = more cells surviving (less toxic)
Settings: 37.037 nM; exposure time: 72 h
Counter-ions that a name gives are not always drawn.
Assignment: determine reported surviving fraction for the given compounds.
# print the numeric value only

Prompt line: Read off the recorded surviving fraction for CCN(CC)CCCC(C)Nc1c2ccc(Cl)cc2nc2ccc(OC)cc12 (centres undefined) [Quinacrine dihydrochloride hydrate]
Response line: 0.97

Prompt line: Read off the recorded surviving fraction for Cc1ccc(NC(=O)c2ccc3c(c2)OCCO3)cc1NC(=O)c1ccc2nc(OCCN3CCCC3)ccc2c1
Response line: 0.268

Prompt line: Read off the recorded surviving fraction for CC(C)C[C@H](NC(=O)[C@H](Cc1ccccc1)C[C@@H](O)[C@H](Cc1ccccc1)NC(=O)OC(C)(C)C)C(=O)N[C@@H](Cc1ccccc1)C(N)=O
Response line: 0.998

Prompt line: Read off the recorded surviving fraction for C/C=C(\C)C(=O)N[C@@H](c1ccccc1)[C@@H](O)C(=O)O[C@H]1C[C@@]2(O)[C@@H](OC(=O)c3ccccc3)[C@@H]3[C@]4(OC(C)=O)CO[C@@H]4C[C@H](O)[C@@]3(C)C(=O)[C@H](OC(C)=O)C(=C1C)C2(C)C
Response line: 0.0853

---

System: E13 (patient-derived glioblastoma stem cells of classical subtype)
Experiment: phenotypic distance (Euclidean, principal components) from DMSO controls (arbitrary units); higher = stronger morphological change
Settings: 4.1 nM; exposure time: 72 h
Counter-ions that a name gives are not always drawn.
property measured: phenotypic distance
# print the numeric value only

Prompt line: Read off the recorded phenotypic distance for CC(=O)CC(c1ccc([N+](=O)[O-])cc1)c1c(O)c2ccccc2oc1=O (centres undefined)
Response line: 0.426

Prompt line: Read off the recorded phenotypic distance for CN(C(=O)CN(CCO)CC(=O)N(C)C(C)(C)Cc1ccccc1)C(C)(C)Cc1ccccc1
Response line: 0.675

Prompt line: Read off the recorded phenotypic distance for Cc1ncc(CO)c(CO)c1O [Pyridoxine hydrochloride]
Response line: 1.83

Prompt line: Read off the recorded phenotypic distance for CCC(C)(C)C(=O)O[C@H]1C[C@@H](C)C=C2C=C[C@H](C)[C@H](CC[C@@H]3C[C@@H](O)CC(=O)O3)[C@H]21
Response line: 0.99

Prompt line: Read off the recorded phenotypic distance for N=C(NCCCCCCNC(=N)NC(=N)Nc1ccc(Cl)cc1)NC(=N)Nc1ccc(Cl)cc1
Response line: 0.429

Prompt line: Read off the recorded phenotypic distance for O=C(CCBr)N1CCN(C(=O)CCBr)CC1
Response line: 0.472

Prompt line: Read off the recorded phenotypic distance for COC(=O)C1=C(C)NC(C)=C(C(=O)OCC(C)C)C1c1ccccc1[N+](=O)[O-] (centres undefined)
Response line: 0.597

Prompt line: Read off the recorded phenotypic distance for CC(C)CC(=O)N[C@H](C(=O)N[C@H](C(=O)N[C@@H](CC(C)C)[C@@H](O)CC(=O)N[C@@H](C)C(=O)N[C@@H](CC(C)C)[C@@H](O)CC(=O)O)C(C)C)C(C)C
Response line: 3.07

Prompt line: Read off the recorded phenotypic distance for CCCCC1C(=O)N(c2ccccc2)N(c2ccc(O)cc2)C1=O (centres undefined)
Response line: 0.562

---

Test system: E13
Assay: surviving fraction (nuclei count normalised to DMSO); higher = more cells surviving (less toxic)
Settings: 3000 nM; exposure time: 72 h
Structures can show the parent of a compound that is named as a salt.
Assignment: determine reported surviving fraction for the given compounds.

Prompt line: Read off the recorded surviving fraction for C[C@H]1O[C@@H](O[C@H]2[C@@H](O)C[C@H](O[C@H]3[C@@H](O)C[C@H](O[C@H]4CC[C@@]5(C)[C@H](CC[C@@H]6[C@@H]5C[C@@H](O)[C@]5(C)[C@@H](C7=CC(=O)OC7)CC[C@]65O)C4)O[C@@H]3C)O[C@@H]2C)C[C@H](O)[C@@H]1O [Digoxin]
Response line: 0.266

Prompt line: Read off the recorded surviving fraction for O=C1CC[C@@H](C(=O)N2CSC[C@H]2C(=O)O)N1 [Pidotimod]
Response line: 0.913

Prompt line: Read off the recorded surviving fraction for CC1(C(=O)O)C2CCC(O2)C1(C)C(=O)O (configuration not stated) [Cantharidic Acid]
Response line: 0.939

Prompt line: Read off the recorded surviving fraction for CCOC(=O)OC(C)OC1=C(C(=O)Nc2ccccn2)N(C)S(=O)(=O)c2ccccc21 (configuration not stated) [Ampiroxicam]
Response line: 0.916

Prompt line: Read off the recorded surviving fraction for CC(C)N1CCN(c2ccc(OCC3COC(Cn4cncn4)(c4ccc(Cl)cc4Cl)O3)cc2)CC1 (configuration not stated) [Terconazole]
Response line: 0.958

Prompt line: Read off the recorded surviving fraction for Cc1ccc(NC(=O)c2ccc3c(c2)OCCO3)cc1NC(=O)c1ccc2nc(OCCN3CCCC3)ccc2c1
Response line: 0.245

Prompt line: Read off the recorded surviving fraction for C[C@@H]1CN([C@H]2CC[C@](C#N)(c3ccc(F)cc3)CC2)CC[C@]1(C(=O)O)c1ccccc1 [Levocabastine hydrochloride]
Response line: 0.918
